JHH-5 Internalization (MFI) for assorted binders
biological target: human glypican-3 (GPC3) (human, UniProt P51654 25-554); assay: cell-based or functional assay; further: test concentration or dose not given here
MEASURED_PROPERTY: JHH-5 Internalization (MFI)

binder="H18L6_LC_G34H mAb, v40205 (antibody, human IgG1, kappa, V domains shown, M3-H18L6 chains with the stated light chain point mutation, IgG1/kappa) VH: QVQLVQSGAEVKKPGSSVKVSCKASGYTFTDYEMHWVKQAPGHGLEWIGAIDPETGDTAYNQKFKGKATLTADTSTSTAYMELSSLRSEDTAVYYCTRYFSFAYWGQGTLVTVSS VL: EIVLTQSPATLSLSPGERATISCRSSQSLRHSNHNTYLQWYQQKPGQAPRLLIYKVSNRFSGVPARFSGSGSGTDFTLTISSLEPEDFAVYFCYQSKHVPYTFGGGTKVEIKR" measured_property="JHH-5 Internalization (MFI)" result="9170 MFI"
binder="H18L6_LC_N33E mAb, v40213 (antibody, human IgG1, kappa, V domains shown, M3-H18L6 chains with the stated light chain point mutation, IgG1/kappa) VH: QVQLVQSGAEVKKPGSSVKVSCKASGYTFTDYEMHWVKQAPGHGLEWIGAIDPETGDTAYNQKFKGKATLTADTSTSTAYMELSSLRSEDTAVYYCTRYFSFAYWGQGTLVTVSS VL: EIVLTQSPATLSLSPGERATISCRSSQSLRHSEGNTYLQWYQQKPGQAPRLLIYKVSNRFSGVPARFSGSGSGTDFTLTISSLEPEDFAVYFCYQSKHVPYTFGGGTKVEIKR" measured_property="JHH-5 Internalization (MFI)" result="1200 MFI"
binder="H18L6_LC_G34A mAb, v40212 (antibody, human IgG1, kappa, V domains shown, M3-H18L6 chains with the stated light chain point mutation, IgG1/kappa) VH: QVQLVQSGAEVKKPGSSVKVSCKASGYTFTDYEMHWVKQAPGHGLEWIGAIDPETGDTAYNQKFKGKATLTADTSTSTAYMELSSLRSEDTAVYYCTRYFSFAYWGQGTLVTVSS VL: EIVLTQSPATLSLSPGERATISCRSSQSLRHSNANTYLQWYQQKPGQAPRLLIYKVSNRFSGVPARFSGSGSGTDFTLTISSLEPEDFAVYFCYQSKHVPYTFGGGTKVEIKR" measured_property="JHH-5 Internalization (MFI)" result="9070 MFI"
